# Tested on: preferentially upregulated genes in LV, SP, LN
# test details: Z-score-based differential gene expression analysis (adjuvant group- or adjuvant-associated genes, 40 module mapping, TargetMine annotation)
# Type: in vivo, C57BL/6 mice
# condition details: ID, LV, sample x1
quantity name: Ifih1 1426276_at (Group G1, Modules 20)

# input Field request: Ifih1 1426276_at (Group G1, Modules 20) | item: Nc1nc2c(ncn2[C@@H]2O[C@@H]3COP(=O)(O)O[C@H]4[C@@H](O)[C@H](n5cnc6c(N)ncnc65)O[C@@H]4COP(=O)(O)O[C@@H]2[C@@H]3O)c(=O)[nH]1 [cGAMP, Cyclic [G(2′,5′)pA(3′,5′)p]]
# output 1.73

# input Try the compound Cc1ccc2c(=O)c3cccc(CC(=O)O)c3oc2c1C
# output 1.25

# input Try the compound CCOCc1nc2c(N)nc3ccccc3c2n1CC(C)(C)O
# output 3.25

# input Try the compound Nc1nc2c(ncn2[C@@H]2O[C@@H]3COP(=O)(O)O[C@H]4[C@@H](O)[C@H](n5cnc6c(=O)[nH]c(N)nc65)O[C@@H]4COP(=O)(O)O[C@H]3[C@H]2O)c(=O)[nH]1 [cdiGMP, Cyclic diguanylate monophosphate]
# output 0.89

---

Each record here notes measured GO annotation: positive regulation of cytokine production (Term: cytokine).
# Tested on: adjuvant-associated biological themes in LV, SP, LN
# condition details: LV, ID
# Protocol: A defined sets of genes were selected according to specified criteria (e.g., FC, PA-call, threshold values). […] Whole organ transcriptome data for each organ from each mouse were analyzed as follows to obtain biological themes for individual samples from each adjuvant-administered group of three mice. […] Next, the biological themes called by all the individual samples in the group were scored as follows. […]

Examples with answers:
• Nc1nc2c(ncn2[C@@H]2O[C@@H]3COP(=O)(O)O[C@H]4[C@@H](O)[C@H](n5cnc6c(N)ncnc65)O[C@@H]4COP(=O)(O)O[C@@H]2[C@@H]3O)c(=O)[nH]1 [cGAMP, Cyclic [G(2′,5′)pA(3′,5′)p]] = 11.1
• CC(O)COC[C@H]1O[C@@H]2O[C@H]3[C@H](O)[C@@H](O)[C@@H](O[C@H]4[C@H](O)[C@@H](O)[C@@H](O[C@H]5[C@H](O)[C@@H](O)[C@@H](O[C@H]6[C@H](O)[C@@H](O)[C@@H](O[C@H]7[C@H](O)[C@@H](O)[C@@H](O[C@H]8[C@H](O)[C@@H](O)[C@@H](O[C@H]1[C@H](O)[C@H]2O)O[C@@H]8COCC(C)O)O[C@@H]7COCC(C)O)O[C@@H]6COCC(C)O)O[C@@H]5COCC(C)O)O[C@@H]4COCC(C)O)O[C@@H]3COCC(C)O (stereo partly drawn) [bCD, Hydroxypropyl-beta-cyclodextrin] = 0
• Nc1nc2c(ncn2[C@@H]2O[C@@H]3COP(=O)(O)O[C@H]4[C@@H](O)[C@H](n5cnc6c(=O)[nH]c(N)nc65)O[C@@H]4COP(=O)(O)O[C@H]3[C@H]2O)c(=O)[nH]1 [cdiGMP, Cyclic diguanylate monophosphate] = 23.6

# input Hello, I am looking for reported GO annotation: positive regulation of cytokine production (Term: cytokine) with adjuvant-associated biological themes in LV, SP, LN for Cc1ccc2c(=O)c3cccc(CC(=O)O)c3oc2c1C [DMXAA, 5,6-dimethylxanthenone-4-acetic acid] . Could you help?
# output 7.86

---

# System: adjuvant-associated biological themes in LV, SP, LN
# condition details: LV, ID
# Description: A defined sets of genes were selected according to specified criteria (e.g., FC, PA-call, threshold values). […] Whole organ transcriptome data for each organ from each mouse were analyzed as follows to obtain biological themes for individual samples from each adjuvant-administered group of three mice. […] Next, the biological themes called by all the individual samples in the group were scored as follows. […]
quantity name: GO annotation: Cytokine-cytokine receptor interaction (Term: cytokine)
# answer = number (no unit)

Examples with answers:
• CC(O)COC[C@H]1O[C@@H]2O[C@H]3[C@H](O)[C@@H](O)[C@@H](O[C@H]4[C@H](O)[C@@H](O)[C@@H](O[C@H]5[C@H](O)[C@@H](O)[C@@H](O[C@H]6[C@H](O)[C@@H](O)[C@@H](O[C@H]7[C@H](O)[C@@H](O)[C@@H](O[C@H]8[C@H](O)[C@@H](O)[C@@H](O[C@H]1[C@H](O)[C@H]2O)O[C@@H]8COCC(C)O)O[C@@H]7COCC(C)O)O[C@@H]6COCC(C)O)O[C@@H]5COCC(C)O)O[C@@H]4COCC(C)O)O[C@@H]3COCC(C)O (stereo partly drawn) [bCD, Hydroxypropyl-beta-cyclodextrin] = 4.24
• Cc1ccc2c(=O)c3cccc(CC(=O)O)c3oc2c1C [DMXAA, 5,6-dimethylxanthenone-4-acetic acid] = 0
• Nc1nc2c(ncn2[C@@H]2O[C@@H]3COP(=O)(O)O[C@H]4[C@@H](O)[C@H](n5cnc6c(N)ncnc65)O[C@@H]4COP(=O)(O)O[C@@H]2[C@@H]3O)c(=O)[nH]1 [cGAMP, Cyclic [G(2′,5′)pA(3′,5′)p]] = 5.57

# evaluate next
# input Field request: GO annotation: Cytokine-cytokine receptor interaction (Term: cytokine) | item: Nc1nc2c(ncn2[C@@H]2O[C@@H]3COP(=O)(O)O[C@H]4[C@@H](O)[C@H](n5cnc6c(=O)[nH]c(N)nc65)O[C@@H]4COP(=O)(O)O[C@H]3[C@H]2O)c(=O)[nH]1 [cdiGMP, Cyclic diguanylate monophosphate]
# output 13.8

---

# System: preferentially upregulated genes in LV, SP, LN
# test details: Z-score-based differential gene expression analysis (adjuvant group- or adjuvant-associated genes, 40 module mapping, TargetMine annotation)
# Format: in vivo, C57BL/6 mice
# condition details: ID, LV, sample x2
Each record here notes measured Ifit1 1450783_at (Group G1, Modules 20).
# answer = number (no unit)

# input Field request: Ifit1 1450783_at (Group G1, Modules 20) | item: CCOCc1nc2c(N)nc3ccccc3c2n1CC(C)(C)O [R848]
# output 1.14

# input Try the molecule Nc1nc2c(ncn2[C@@H]2O[C@@H]3COP(=O)(O)O[C@H]4[C@@H](O)[C@H](n5cnc6c(=O)[nH]c(N)nc65)O[C@@H]4COP(=O)(O)O[C@H]3[C@H]2O)c(=O)[nH]1 [cdiGMP, Cyclic diguanylate monophosphate]
# output 2.28

# input Try the molecule Nc1nc2c(ncn2[C@@H]2O[C@@H]3COP(=O)(O)O[C@H]4[C@@H](O)[C@H](n5cnc6c(N)ncnc65)O[C@@H]4COP(=O)(O)O[C@@H]2[C@@H]3O)c(=O)[nH]1 [cGAMP, Cyclic [G(2′,5′)pA(3′,5′)p]]
# output 2.63

# input Try the molecule Cc1ccc2c(=O)c3cccc(CC(=O)O)c3oc2c1C [DMXAA, 5,6-dimethylxanthenone-4-acetic acid]
# output 1.54

---

# System: preferentially upregulated genes in LV, SP, LN
# test details: Z-score-based differential gene expression analysis (adjuvant group- or adjuvant-associated genes, 40 module mapping, TargetMine annotation)
# Assay type: in vivo, C57BL/6 mice
# condition details: ID, LV, sample x1
Each record here notes measured Uba7 1426970_a_at (Group G1, Modules 20).
# answer = number (no unit)

# input Hello, I am looking for reported Uba7 1426970_a_at (Group G1, Modules 20) with preferentially upregulated genes in LV, SP, LN for Nc1nc2c(ncn2[C@@H]2O[C@@H]3COP(=O)(O)O[C@H]4[C@@H](O)[C@H](n5cnc6c(=O)[nH]c(N)nc65)O[C@@H]4COP(=O)(O)O[C@H]3[C@H]2O)c(=O)[nH]1 [cdiGMP, Cyclic diguanylate monophosphate] . Could you help?
# output 0.53

# input Try the compound CCOCc1nc2c(N)nc3ccccc3c2n1CC(C)(C)O
# output 2.64

# input Try the compound Nc1nc2c(ncn2[C@@H]2O[C@@H]3COP(=O)(O)O[C@H]4[C@@H](O)[C@H](n5cnc6c(N)ncnc65)O[C@@H]4COP(=O)(O)O[C@@H]2[C@@H]3O)c(=O)[nH]1 [cGAMP, Cyclic [G(2′,5′)pA(3′,5′)p]]
# output 2.06

# input Try the compound Cc1ccc2c(=O)c3cccc(CC(=O)O)c3oc2c1C
# output 1.81

---

# Test system: adjuvant-associated biological themes in LV, SP, LN
# condition details: LV, ID
# Procedure: A defined sets of genes were selected according to specified criteria (e.g., FC, PA-call, threshold values). […] Whole organ transcriptome data for each organ from each mouse were analyzed as follows to obtain biological themes for individual samples from each adjuvant-administered group of three mice. […] Next, the biological themes called by all the individual samples in the group were scored as follows. […]
Each record here notes measured GO annotation: cytokine-mediated signaling pathway (Term: cytokine).
# answer = number (no unit)

Examples with answers:
- CC(O)COC[C@H]1O[C@@H]2O[C@H]3[C@H](O)[C@@H](O)[C@@H](O[C@H]4[C@H](O)[C@@H](O)[C@@H](O[C@H]5[C@H](O)[C@@H](O)[C@@H](O[C@H]6[C@H](O)[C@@H](O)[C@@H](O[C@H]7[C@H](O)[C@@H](O)[C@@H](O[C@H]8[C@H](O)[C@@H](O)[C@@H](O[C@H]1[C@H](O)[C@H]2O)O[C@@H]8COCC(C)O)O[C@@H]7COCC(C)O)O[C@@H]6COCC(C)O)O[C@@H]5COCC(C)O)O[C@@H]4COCC(C)O)O[C@@H]3COCC(C)O (stereo partly drawn) [bCD, Hydroxypropyl-beta-cyclodextrin]: 0
- Nc1nc2c(ncn2[C@@H]2O[C@@H]3COP(=O)(O)O[C@H]4[C@@H](O)[C@H](n5cnc6c(N)ncnc65)O[C@@H]4COP(=O)(O)O[C@@H]2[C@@H]3O)c(=O)[nH]1 [cGAMP, Cyclic [G(2′,5′)pA(3′,5′)p]]: 16.4
- Cc1ccc2c(=O)c3cccc(CC(=O)O)c3oc2c1C [DMXAA, 5,6-dimethylxanthenone-4-acetic acid]: 0

# evaluate next
# input Field request: GO annotation: cytokine-mediated signaling pathway (Term: cytokine) | item: Nc1nc2c(ncn2[C@@H]2O[C@@H]3COP(=O)(O)O[C@H]4[C@@H](O)[C@H](n5cnc6c(=O)[nH]c(N)nc65)O[C@@H]4COP(=O)(O)O[C@H]3[C@H]2O)c(=O)[nH]1 [cdiGMP, Cyclic diguanylate monophosphate]
# output 20

Data provenance: patent US20230021483A1
